// values below are reported melting point

                                   compound         result
0  CC(C)CCOC(=O)C(C)Oc1cc(-c2nn(C)c(C(F)(F)F)c2Cl)c(F)cc1Cl (stereo not given)         128 °C
1  O=C(C=Cc1cccc(NS(=O)(=O)/C=C/c2ccccc2)c1)NO         171 °C
2  Cc1cc2c(c(C(C)(C)C)c1)OC(=O)C2OC(=O)CCc1cc(C(C)(C)C)c(O)c(C(C)(C)C)c1 (stereo not given)  151 to 154 °C
3  O=C(NCC1Cc2ccc3c(c2O1)CCCC3)OCc1ccccc1 (stereo not given)    88 to 90 °C
4                    CSC(SC)=C1C(=O)CCCC1=O    66 to 67 °C
5  CC=Cc1c(NC(=O)C(F)(F)F)ccc2c(=O)cc(C(=O)OCC)oc12  140 to 141 °C
6  COc1cc(C(=O)O)c(-c2c(C(=O)O)ccc3c2OCO3)cc1OC  207 to 210 °C
7  Cc1ccc(NCC2CCNCC2)c(C(=O)Nc2ccc(F)cn2)c1  147 to 149 °C

Task item: # query: melting point of entry `Cc1ccc2c(NCc3ccc(NC(=O)C4CCN(Cc5ccccc5)CC4)cc3)nc(Cl)nc2c1`
Reply: 212 °C

Task item: Follow-up item: `O=C(CCc1ccc([N+](=O)[O-])cc1)c1c(O)c2cccnc2n(-c2ccccc2)c1=O`
Reply: 215 to 217 °C

Task item: Follow-up item: `CCCCCc1ccc([C@H]2CC[C@H](c3ccc(C#N)cc3)CC2)cc1`
Reply: 80 °C

Task item: Follow-up item: `CN(C)c1ccc(C(=N)Nc2cccc(NC(=O)C=Cc3ccccc3)c2)cc1`
Reply: 225 to 227 °C

Task item: Follow-up item: CC#CC(C)(C)NC(=O)C(CC)Oc1ccc2ncc(C#N)cc2c1 (stereo not given)
Reply: 116 to 118 °C

Task item: Follow-up item: `COc1ccc(CCNC(=O)C(F)(F)F)cc1OC`
Reply: 93 °C

Task item: Follow-up item: `CCSc1sc(C(=O)N2CCCC2)c2c1-c1oncc1C(C)(C)C2`
Reply: 91 to 93 °C

Task item: Follow-up item: `O=Cc1cc(-c2ccc(O)cc2)c2occc2c1`
Reply: 154 to 155 °C

Task item: Follow-up item: CC1COc2c(N3CCC(NC(=O)OC(C)(C)C)C3)c(F)cc3c(=O)n(N)c(=O)n1c23 (stereo not given)
Reply: 114 to 116 °C

Task item: Follow-up item: CN1C(=O)CN(N=Cc2ccccc2)C(c2ccccc2)c2cc(Cl)ccc21 (stereo not given)
Reply: 157 to 158 °C

Task item: Follow-up item: `Cc1cc(=S)c2c(O)cc(OC(C)C)cc2o1`
Reply: 119 to 120 °C

Task item: Follow-up item: `C#CCN(Cc1ccccc1)S(=O)(=O)c1ccc([N+](=O)[O-])cc1[N+](=O)[O-]`
Reply: 91 to 92 °C

* * *

// values below are reported melting point

Below: 6 compounds and their reported melting point.
>>> print(df.to_string())
                                   compound         result
0  O=C(NC(Cc1ccccc1)C1CC(Cc2ccccc2)=NO1)c1ccccc1 (stereo not given)  141 to 142 °C
1  CN(C(=O)c1ccccc1N(CC(=O)N1CCCC(C)(C)C1)C(=O)CN1C(=O)c2ccccc2C1=O)c1ccccc1         180 °C
2  Cc1cn(C2CC(O)C(C#N)(CO)O2)c(=O)[nH]c1=O (stereo not given)  238 to 242 °C
3            O=C1C2=C(C=CCN2)CCc2ccc(F)cc21    78 to 81 °C
4  O=C(Nc1noc2ccccc12)N1CCN(c2nc(-c3ccccc3)ns2)CC1  234 to 235 °C
5  CC(C)C[C@H](NC(=O)[C@H](CC(=O)OC(C)(C)C)Cc1ccccc1)C(=O)N[C@@H](CC(C)C)[C@@H](O)c1nccs1  162 to 163 °C

Task item: # query: melting point of entry NC(CC(c1ccccc1)c1ccccc1)(C(=O)O)C1CC(C(=O)O)(C(=O)O)C1 (stereo not given)
Reply: 182 to 185 °C

Task item: Follow-up item: O=C1c2ccccc2C(=O)N1CCCC(=O)N1c2ccccc2N(Cc2ccccc2)C(=O)[C@H]2CCC[C@H]21 (relative stereo)
Reply: 182 to 184 °C

Task item: Follow-up item: `CC(C)NC1=NS(=O)(=O)c2cc(N)ccc2N1`
Reply: 278 to 283 °C

Task item: Follow-up item: `O=C1C2=C(SCCO2)C(=O)N1c1ccc2cccnc2n1`
Reply: 200 °C

Task item: Follow-up item: `ClCn1nnc2ccccc21`
Reply: 136 °C

Task item: Follow-up item: `N#Cc1cccc(-c2cnn(-c3ccccn3)c2)c1`
Reply: 160 to 161 °C

Task item: Follow-up item: `c1cc(-c2cncnc2)cc(-n2cnc3cc(-n4cccc4)ccc32)c1`
Reply: 197 to 198 °C

Task item: Follow-up item: `Cc1ccccc1NC(=O)c1ccc(C(=O)N2Cc3cccn3Cc3ccccc32)cc1`
Reply: 228 to 231 °C

Task item: Follow-up item: `Cc1ccc([N+](=O)[O-])c(C)c1C(=O)O`
Reply: 109 to 112 °C

Task item: Follow-up item: `O=C(O)c1ccc(N2C(=O)C(=Cc3ccccc3)SC2=S)cc1`
Reply: 298 to 301 °C

Task item: Follow-up item: `Cc1cc([N+](=O)[O-])c(C(=O)OC(C)C)cc1Oc1ccc(OC(F)(F)F)cc1`
Reply: 47 to 49 °C

Task item: Follow-up item: Cc1ccc(CNc2c3c(nc4ccccc24)CCCC3O)cc1 (stereo not given)
Reply: 176 to 178 °C

Task item: Follow-up item: COc1ccc(N2CCN(c3c(C)c(C)c4c(c3C)C(c3ccoc3)C(C)(C)O4)CC2)cc1 (stereo not given)
Reply: 110 to 113 °C

Task item: Follow-up item: `C[C@@H](Nc1ncnc2cc(OCCO)c([N+](=O)[O-])cc12)c1ccccc1`
Reply: 187 to 192 °C

* * *

readout: melting point

Below: 3 compounds and their reported melting point.
>>> df
                                   compound         result
0  CCCCCCC/C=C\CCCCCCCC(O)CCCNC(C)=O (stereo not given)    50 to 52 °C
1         Cc1oc(-c2ccccc2)nc1CCOc1ccc(I)cn1  105 to 106 °C
2  CCCCNC(=NC#N)Nc1ccc(C2=NNC(=O)CC2C)cc1 (stereo not given)  184 to 186 °C

Task item: # query: melting point of entry `O=C(Nc1cccnn1)N1CCN(c2nc(-c3ccccc3)ns2)CC1`
Reply: 185 to 186 °C

Task item: Follow-up item: `O=S(=O)(CCCCCOc1ccc(C2=C(c3ccc(O)cc3)CCCc3cc(O)ccc32)cc1)CCCC(F)(F)C(F)(F)F`
Reply: 168 to 170 °C

* * *

// values below are reported melting point

In [3]: df
Out[3]:
                                   compound         result
0                O=C1CCc2cc(Br)c3c(c21)CCO3  149 to 150 °C
1  COc1cc2c3c(cccc3c1N1CCCCC1)C(=O)N(O)C2=O  204 to 205 °C
2  Cc1nc2c(N)nc3ccccc3c2n1CCOCCN1CCCS1(=O)=O  186 to 187 °C
3  CNS(=O)(=O)c1cc(C(=O)c2c(C)[nH]c3ccccc23)ccc1Cl         246 °C
4  COC(=O)C(C)(O)c1ccc(-c2ccccc2)c(F)c1 (stereo unspecified)    59 to 61 °C

Task item: # query: melting point of entry `CN1C(=O)[C@H](NC(=O)Nc2ccc3c(c2)CCC3)N=C(c2ccccc2)c2ccccc21`
Reply: 156 to 158 °C

Task item: Follow-up item: COc1ccc(-c2c(NCC(C)c3ccccc3)c(=O)c2=O)cc1 (stereo unspecified)
Reply: 215 to 216 °C

Task item: Follow-up item: CC(Oc1ncn(-c2ccccc2)n1)C(=O)O (stereo unspecified)
Reply: 140 to 142 °C

* * *

readout: melting point

>>> print(df.to_string())
                                   molecule        readout         result
0  CC(=C1SC(=O)NC1=O)c1cccc(OCCCOc2c(-c3ccc(F)cc3)n(C)c3ccccc3c2=O)c1  melting point  168 to 170 °C

Task item: # query: melting point of entry NCC(O)C1COc2ccccc2O1 (stereo not given)
Reply: 86 to 88 °C

Task item: Follow-up item: `COC(=O)c1cc(N)n(C)n1`
Reply: 101 to 102 °C

Task item: Follow-up item: CC(=O)N1CCCC(=O)c2ccc(Cl)cc2C(c2ccccc2)CC1=O (stereo not given)
Reply: 184 to 185 °C

Task item: Follow-up item: `N#CCc1nc2c(s1)Cc1cc(Cl)ccc1-2`
Reply: 134 °C

Task item: Follow-up item: `O=C(Nc1ccc(CN2CCCCC2)cc1)C1=Cc2cc(C3CCCCC3)ccc2CC1`
Reply: 180 to 181 °C

Task item: Follow-up item: `C=CCCCCCCCCCCCCCCCCCCCCO`
Reply: 62 to 64 °C

Task item: Follow-up item: COc1ccc(C(=O)C2=C(O)C(=O)N(c3ccc(C)nn3)C2c2ccc(OC(F)(F)F)cc2)cc1 (stereo not given)
Reply: 265 °C

Task item: Follow-up item: `O=S(=O)(NCCc1ccc(Cc2nnn[nH]2)cc1)c1ccc(Cl)cc1`
Reply: 168 to 169 °C

Task item: Follow-up item: `COc1ccc(NC(=O)C2=C(O)c3ccccc3S(=O)(=O)N2C)c(=O)cc1`
Reply: 251 to 253 °C

Task item: Follow-up item: `COc1cc2c(cc1OC)OCC(C(=O)O)=C2`
Reply: 225 to 228 °C

Task item: Follow-up item: CC(CCN(C)c1ccccc1)NCC(O)c1ccc(O)c(C(N)=O)c1 (stereo not given)
Reply: 150 to 152 °C
